- Test system: Mycobacterium tuberculosis
- Assay text: Cornell - Phenotypic assay to identify agents that inhibit growth of Mycobacterium tuberculosis
- Type: functional
- Parameters: scale not given: direction of the effect not stated beside the values
- Run conditions: 10 mM as filed; unlikely as a test dose
In all, about 53,000 compounds went through this assay and about 900 (1.7%) showed an effect of 50% or more. Only a selection was taken, and strong results are over-represented in it overall.
Measured attribute: Percent Effect
Write your answer as a measured quantity: the number, then the unit.

Enquiry: I have this compound here, CCn1cc(NC(=O)CN2C(=O)CC(C)(C)c3ccccc32)cn1 , and I need its recorded Percent Effect.
Return: 23.89%

Enquiry: I have this compound here, C[C@@H]1CN(c2cccnn2)CC[C@@]1(O)C1CCOCC1 , and I need its recorded Percent Effect.
Return: -7.399%

Enquiry: I have this compound here, Cc1cnc(C)c(N2CCCC(CO)(Cc3ccccc3C)C2)n1 (stereo unspecified) , and I need its recorded Percent Effect.
Return: 5.498%

Enquiry: I have this compound here, CN(Cc1ncc[nH]1)c1nc(-c2ccccn2)nc2c1CCNCC2 , and I need its recorded Percent Effect.
Return: 56.27%

Enquiry: I have this compound here, Cc1ccccc1CC1(CO)CCCN(c2ncncc2C(C)C)C1 (stereo unspecified) , and I need its recorded Percent Effect.
Return: 81.01%

Enquiry: I have this compound here, c1csc(N2CCCN(c3ncnc4sccc34)CC2)n1 , and I need its recorded Percent Effect.
Return: 9.712%

Enquiry: I have this compound here, COc1ccc(-c2cc(C(=O)N3N=C(C)CC3(O)C(F)(F)F)[nH]n2)cc1 (stereo unspecified) , and I need its recorded Percent Effect.
Return: -4.762%

Enquiry: I have this compound here, CC(=O)c1ccc(N2CCCC(CO)(Cc3ccccc3C)C2)nc1 (stereo unspecified) , and I need its recorded Percent Effect.
Return: 13.02%

Enquiry: I have this compound here, COc1cccc(-c2cc(C(=O)N3N=C(C)CC3(O)C(F)F)[nH]n2)c1 (stereo unspecified) , and I need its recorded Percent Effect.
Return: 21.19%

Enquiry: I have this compound here, CN(Cc1cccnc1)c1nc(-c2ccccn2)nc2c1CCNCC2 , and I need its recorded Percent Effect.
Return: 31.77%

Enquiry: I have this compound here, CCCN(CC(F)(F)F)S(=O)(=O)c1cc(C(N)=O)n(C)c1 , and I need its recorded Percent Effect.
Return: -26.73%

----------
- Test system: Mycobacterium tuberculosis
- Assay text: Cornell - Phenotypic assay to identify agents that inhibit growth of Mycobacterium tuberculosis
- Type: functional
- Set-up: scale not given: direction of the effect not stated beside the values
- Run conditions: 10 mM as filed; unlikely as a test dose
Among all 53,000 compounds or so, about 900 (1.7%) showed an effect of 50% or more. Many of the other results were omitted from the sample, so strong results are more common in it than they were.
Measured attribute: Percent Effect (%)
# output: bare number, implied unit %

Enquiry: I have this molecule here, Cc1ccc(C(=O)N2CCSCC2)cc1NC(=O)NCCO , and I need its recorded Percent Effect.
Return: 4.458

Enquiry: I have this molecule here, CCOCC(=O)Nc1ccc(N2CCSCC2)cc1C , and I need its recorded Percent Effect.
Return: 35.44

Enquiry: I have this molecule here, Cc1cc(C)n(CC2CN(Cc3cccc(C#N)c3)CCO2)n1 (stereo unspecified) , and I need its recorded Percent Effect.
Return: 14.78

Enquiry: I have this molecule here, N#CCSCCCN1CCN(C(=O)c2cccc(Cl)c2)CC1 , and I need its recorded Percent Effect.
Return: 18.37

Enquiry: I have this molecule here, CN(C)CCNC(=O)CC1CCN(c2cccnn2)CC1 , and I need its recorded Percent Effect.
Return: 8.308

Enquiry: I have this molecule here, COc1ccc(C)cc1NC(=O)Nc1cnc(O)nc1O , and I need its recorded Percent Effect.
Return: 28.36

Enquiry: I have this molecule here, COc1cccc(N2CCN(CC(O)c3cc(C)ccc3C)CC2)c1 (stereo unspecified) , and I need its recorded Percent Effect.
Return: -17.91

Enquiry: I have this molecule here, Cc1ccc(-c2cc(C(=O)NC(C)C(=O)N3CCCCC3)on2)cc1 (stereo unspecified) , and I need its recorded Percent Effect.
Return: 17.57

Enquiry: I have this molecule here, CC(NC(=O)NCc1ccccc1)(C(=O)O)c1ccco1 (stereo unspecified) , and I need its recorded Percent Effect.
Return: -57.05

Enquiry: I have this molecule here, CC(C)CC(=O)N1Cc2ccccc2CC1C(=O)Nc1nncs1 (stereo unspecified) , and I need its recorded Percent Effect.
Return: 29.19

Enquiry: I have this molecule here, COCc1noc(-c2ccc(N(C)Cc3ncccc3C)nc2)n1 , and I need its recorded Percent Effect.
Return: 3.239

Enquiry: I have this molecule here, Clc1ccc(COCC2CCN(Cc3ccccn3)CC2)cc1.O=C(O)C(=O)O , and I need its recorded Percent Effect.
Return: 33.78

Enquiry: I have this molecule here, CN(C)C(=O)[C@@H]1CCO[C@@H]2CCN(Cc3ccccc3)C[C@@H]21.O=C(O)C(F)(F)F , and I need its recorded Percent Effect.
Return: 104.8

Enquiry: I have this molecule here, CCN(CC1CCCO1)C(=O)Nc1cccc(N2CCOCC2)c1 (stereo unspecified) , and I need its recorded Percent Effect.
Return: 5.45

Enquiry: I have this molecule here, O=C1NCC2(CCCN(c3ncnc4c3CCC4)CC2)O1 (stereo unspecified) , and I need its recorded Percent Effect.
Return: 11.26

Enquiry: I have this molecule here, Cc1ccc(C)c(CNC(=O)NC(C)(C(=O)O)c2ccco2)c1 (stereo unspecified) , and I need its recorded Percent Effect.
Return: 50.37

Enquiry: I have this molecule here, CN1CCOC(CNCC(=O)NCCc2ccc3c(c2)OCCO3)C1 (stereo unspecified) , and I need its recorded Percent Effect.
Return: -19.13

Enquiry: I have this molecule here, Cc1cc(C)n(CC2CN(CC(=O)NC3(C#N)CCCC3)CCO2)n1 (stereo unspecified) , and I need its recorded Percent Effect.
Return: -4.222

Enquiry: I have this molecule here, CC(C)c1cc(C(=O)N2CCN(c3ccc(F)c(Cl)c3)CC2)n(C)n1 , and I need its recorded Percent Effect.
Return: 54.92

Enquiry: I have this molecule here, CN(C)C(=O)[C@@H]1CCO[C@@H]2CCN(Cc3ccc4c(c3)OCO4)C[C@@H]21.O=C(O)C(F)(F)F , and I need its recorded Percent Effect.
Return: -46.82

Enquiry: I have this molecule here, CCCc1cc(CNC2CCN(c3cc(C(C)C)nc(C)n3)CC2)on1 , and I need its recorded Percent Effect.
Return: -3.278

Enquiry: I have this molecule here, CNC(=O)C1CCN(C(=O)NCc2ccc(-c3ccn[nH]3)cc2)CC1 , and I need its recorded Percent Effect.
Return: -24.99

Enquiry: I have this molecule here, CN(C)C(=O)[C@@H]1CCO[C@@H]2CCN(CCc3ccccc3)C[C@@H]21.O=C(O)C(F)(F)F , and I need its recorded Percent Effect.
Return: 4.406

Enquiry: I have this molecule here, COC(=O)C(NC(=O)Nc1ccc(C(C)=O)cc1)C(C)C (stereo unspecified) , and I need its recorded Percent Effect.
Return: 6.824

Enquiry: I have this molecule here, O=C(c1ccc(S(=O)(=O)N2CCSCC2)cc1)N1CCC(O)C1 (stereo unspecified) , and I need its recorded Percent Effect.
Return: 10.6

Enquiry: I have this molecule here, CCc1cnc(N2CC[C@H]3[C@@H]2CCC(=O)N3c2ccccc2)nc1.O=C(O)C(F)(F)F , and I need its recorded Percent Effect.
Return: -28.43

Enquiry: I have this molecule here, CCC(C)N(C)C(=O)Nc1ccc(N2CCSCC2)cc1C (stereo unspecified) , and I need its recorded Percent Effect.
Return: 109

Enquiry: I have this molecule here, COCCN(C)C(C(=O)O)c1ccc2ccccc2c1 (stereo unspecified) , and I need its recorded Percent Effect.
Return: -16.36

Enquiry: I have this molecule here, CCN(CC)C(=O)c1cc(C2(C)CCN(C(C)=O)CC2)nc(C)n1 , and I need its recorded Percent Effect.
Return: 3.743

Enquiry: I have this molecule here, CN(CCOc1ccccc1F)C1CCOC1=O (stereo unspecified) , and I need its recorded Percent Effect.
Return: -18.35

Enquiry: I have this molecule here, O=C(CSC1CCCC1)N1CCN(c2ccc(-n3cncn3)nn2)CC1 , and I need its recorded Percent Effect.
Return: -7.169

Enquiry: I have this molecule here, Cc1cc2nc(C(C)C)cc(NCc3ccncc3)n2n1 , and I need its recorded Percent Effect.
Return: -23.44

Enquiry: I have this molecule here, CC(C)c1cc(C2CCCN2C(=O)CN2C(=O)OC(C)(C)C2=O)no1 (stereo unspecified) , and I need its recorded Percent Effect.
Return: 16.26

Enquiry: I have this molecule here, Cc1ccc(C(=O)N2CCSCC2)cc1NC(C)C , and I need its recorded Percent Effect.
Return: 8.4

Enquiry: I have this molecule here, CCNC(=O)c1ccc(NC(=O)N(C)Cc2cccn2C)c(C)c1 , and I need its recorded Percent Effect.
Return: 26.39

Enquiry: I have this molecule here, CS(=O)(=O)NCCCNC(=O)c1cnc(-c2ccsc2)s1 , and I need its recorded Percent Effect.
Return: -10.19

Enquiry: I have this molecule here, O=c1c2ccccc2nc2n1C(CSc1ccc(Br)cc1)CN2 (stereo unspecified) , and I need its recorded Percent Effect.
Return: 19.98

Enquiry: I have this molecule here, Cc1cc(N2CCSCC2)ccc1NC(=O)N(CCO)C1CC1 , and I need its recorded Percent Effect.
Return: 109.4

Enquiry: I have this molecule here, Cc1ncc(CNC(=O)CCc2cccs2)c(C2CCCN2C)n1 (stereo unspecified) , and I need its recorded Percent Effect.
Return: -2.251

Enquiry: I have this molecule here, CN(C)CCN(C)c1ccc(-c2nc(COc3ccccc3)no2)cn1 , and I need its recorded Percent Effect.
Return: 54.95

Enquiry: I have this molecule here, Cc1cc(N2CCCC(c3[nH]ncc3Cc3ccccc3)C2)nc(N)n1 (stereo unspecified) , and I need its recorded Percent Effect.
Return: 13.81

Enquiry: I have this molecule here, Cc1cccc(NC2CCN(C(=O)Nc3cn[nH]c3)CC2)n1 , and I need its recorded Percent Effect.
Return: 5.834

Enquiry: I have this molecule here, O=C(O)C(F)(F)F.O=C(c1ccccc1F)N1CCC2(CC1)CC(Oc1ccccn1)CO2 (stereo unspecified) , and I need its recorded Percent Effect.
Return: 20.39

Enquiry: I have this molecule here, O=C(CC1CCN(c2cccnn2)CC1)NCCO , and I need its recorded Percent Effect.
Return: 12.72

Enquiry: I have this molecule here, O=c1[nH]c2nc(N3CCSCC3)ncc2c(=O)n1-c1cccc(F)c1 , and I need its recorded Percent Effect.
Return: 12.37

Enquiry: I have this molecule here, CN(C)CCNc1ccc(-c2nc(COc3ccccc3)no2)cn1 , and I need its recorded Percent Effect.
Return: 16.69

Data origin: ChEMBL document CHEMBL3988442
